Experiment: physchem
Conditions: pH 7.4
measure.name: solubility

get_value(item= COc1cc(-c2nn(CCN3CCC(N(C)C)CC3)c3ncnc(N)c23)ccc1NC(=O)OC(C)(C)C [11a] , readout=solubility) returns > 100 mg/mL

----------
hepatocyte CLint at 3 µM values for the molecules below.
Assay: in vitro
Details: human, cryopreserved pooled primary hepatocytes
Kindly format the answer as number then unit.

In [3]: df
Out[3]:
                                   molecule                 result
0  COc1cc(-c2nn(CCN3CCC(N(C)C)CC3)c3ncnc(N)c23)ccc1NC(=O)OC(C)(C)C [11a]  1.84 µL/min/1e6 cells

get_value(item= O=c1ccc2ccc(O)cc2o1 [umbelliferone, reference compound] , readout=hepatocyte CLint at 3 µM) returns 150 µL/min/1e6 cells

----------
Assay: in vivo
Settings: female, CD1, mouse, blood/plasma, po, 10 mg/kg
measure.name: AUC (ng·h/mL)
Dear colleague, please return just the value in ng·h/mL, with no unit written.

get_value(item= COc1cc(-c2nn(CCN3CCC(N(C)C)CC3)c3ncnc(N)c23)ccc1NC(=O)OC(C)(C)C [11a] , readout=AUC) returns 530

----------
half-life at 3 µM values for the compounds below.
Assay: in vitro
Conditions: mouse, cryopreserved pooled primary hepatocytes
Dear colleague, please return just the value in min, with no unit written.

>>> print(df.to_string())
                                   compound       measure_name  unit  number
0  COc1cc(-c2nn(CCN3CCC(N(C)C)CC3)c3ncnc(N)c23)ccc1NC(=O)OC(C)(C)C [11a]  half-life at 3 µM   min     110

// next entry
get_value(item= O=c1ccc2ccc(O)cc2o1 [umbelliferone, reference compound] , readout=half-life at 3 µM) returns 1.4

----------
Assay: in vitro
Settings: mouse, cryopreserved pooled primary hepatocytes
measure.name: hepatocyte CLint at 3 µM (µL/min/1e6 cells)
Dear colleague, please return just the value in µL/min/1e6 cells, with no unit written.

>>> print(df.to_string())
                                   compound              unit  number
0  O=c1ccc2ccc(O)cc2o1 [umbelliferone, reference compound]  µL/min/1e6 cells     983

get_value(item= COc1cc(-c2nn(CCN3CCC(N(C)C)CC3)c3ncnc(N)c23)ccc1NC(=O)OC(C)(C)C [11a] , readout=hepatocyte CLint at 3 µM) returns 12.5

----------
Target: UniProt:P09769
Sequence (P09769 whole entry): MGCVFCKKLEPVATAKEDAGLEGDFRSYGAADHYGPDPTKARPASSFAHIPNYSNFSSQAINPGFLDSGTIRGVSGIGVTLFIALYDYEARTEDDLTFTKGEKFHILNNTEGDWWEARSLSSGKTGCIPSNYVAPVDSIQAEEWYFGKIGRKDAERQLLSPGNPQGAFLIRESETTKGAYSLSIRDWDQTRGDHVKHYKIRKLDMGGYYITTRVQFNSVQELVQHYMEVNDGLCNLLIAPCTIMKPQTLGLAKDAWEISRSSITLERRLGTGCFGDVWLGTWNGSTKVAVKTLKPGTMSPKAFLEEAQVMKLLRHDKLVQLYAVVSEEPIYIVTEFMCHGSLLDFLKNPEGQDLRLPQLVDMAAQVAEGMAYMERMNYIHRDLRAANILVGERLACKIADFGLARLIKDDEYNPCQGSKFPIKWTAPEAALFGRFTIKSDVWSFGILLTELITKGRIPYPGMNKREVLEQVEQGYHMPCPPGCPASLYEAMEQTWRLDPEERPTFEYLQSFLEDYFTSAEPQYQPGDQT
Test: Kinase screening assay, 33P radioisotope (Reaction Biology)
Assay type: biochemical
measure.name: IC50
Kindly format the answer as number then unit.

get_value(item= Cc1ccc(-c2nn(C(C)(C)C)c3ncnc(N)c23)cc1 [PP1, reference compound] , readout=IC50) returns 7.6 nM

----------
Assay: in vivo
Conditions: female, CD1, mouse, blood/plasma, iv, 10 mg/kg
measure.name: AUC (ng·h/mL)
Dear colleague, please return just the value in ng·h/mL, with no unit written.

get_value(item= COc1cc(-c2nn(CCN3CCC(N(C)C)CC3)c3ncnc(N)c23)ccc1NC(=O)OC(C)(C)C [11a] , readout=AUC) returns 2070

----------
Molecular target: FRK/PTK5 (Homo sapiens, UniProt P42685)
Sequence (P42685 whole entry): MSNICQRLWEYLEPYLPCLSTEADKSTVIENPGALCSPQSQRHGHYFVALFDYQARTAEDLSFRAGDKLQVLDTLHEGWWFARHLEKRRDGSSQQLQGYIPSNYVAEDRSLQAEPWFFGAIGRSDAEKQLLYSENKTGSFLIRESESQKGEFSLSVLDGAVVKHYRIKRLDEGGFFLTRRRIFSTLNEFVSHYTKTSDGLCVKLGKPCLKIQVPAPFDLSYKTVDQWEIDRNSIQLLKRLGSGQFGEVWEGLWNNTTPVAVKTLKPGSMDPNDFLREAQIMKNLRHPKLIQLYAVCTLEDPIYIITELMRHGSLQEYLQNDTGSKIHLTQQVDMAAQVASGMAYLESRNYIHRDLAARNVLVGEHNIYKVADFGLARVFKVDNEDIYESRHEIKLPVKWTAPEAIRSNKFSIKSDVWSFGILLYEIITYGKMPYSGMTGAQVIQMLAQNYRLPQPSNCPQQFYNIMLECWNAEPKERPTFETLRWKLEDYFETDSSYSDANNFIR
Experiment: biochemical
measure.name: IC50 (nM)
Dear colleague, please return just the value in nM, with no unit written.

Consider the worked cases shown below.
>>> print(df.to_string())
                                   compound  unit  number
0  Cc1ccc(-c2nn(CCN3CCC(CCN(C)C)CC3)c3ncnc(N)c23)cc1 [7k]    nM    3700
1  CCOC(Cn1nc(-c2cnc3[nH]ccc3c2)c2c(N)ncnc21)OCC [8d]    nM    2690

// next entry
FRK/PTK5 (Homo sapiens, UniProt P42685) assay, compound Cc1ccc(-c2nn(CCN3CCC(CN(C)C)CC3)c3ncnc(N)c23)cc1 [7j] , recorded IC50 = 1630
